meta.source: the OligoGym collection

# Test Target: UFC1; also: test concentration or dose not given here
# Test Method Notes: reporter assay of Huesken 2005
# Run Parameters: siRNA
Oligonucleotides are written 5' to 3', each unit as a sugar letter and its base; * is a phosphorothioate linkage, no mark a phosphodiester; rarer units and linkages stand in square brackets, end groups in braces. Plain capitals give the bases only. d = 2'-deoxy (DNA); r = 2'-OH (RNA)
normalised inhibition (eCFP-eYFP dual reporter) listing for selected substances.
Quantity Measured: normalised inhibition (eCFP-eYFP dual reporter) (%)

Substance	Measured Number
sense rArCrCrUrUrUrGrUrGrGrGrCrCrArGrGrArArUdTdT / antisense rArUrUrCrCrUrGrGrCrCrCrArCrArArArGrGrUdTdT	56.9
sense rCrArGrUrCrCrCrUrUrArUrCrCrGrGrUrArUrGdTdT / antisense rCrArUrArCrCrGrGrArUrArArGrGrGrArCrUrGdAdT	78.8
sense rGrCrArArArGrArUrGrUrArCrArGrGrGrGrUrGdTdT / antisense rCrArCrCrCrCrUrGrUrArCrArUrCrUrUrUrGrCdTdG	108
sense rArCrUrGrArArGrGrArGrGrArArUrArUrCrArGdTdT / antisense rCrUrGrArUrArUrUrCrCrUrCrCrUrUrCrArGrUdCdG	75.2
sense rUrGrGrUrArUrArUrCrCrArUrGrArCrCrUrCrCdTdT / antisense rGrGrArGrGrUrCrArUrGrGrArUrArUrArCrCrAdGdC	31.4
sense rArUrCrArGrUrCrCrCrUrUrArUrCrCrGrGrUrAdTdT / antisense rUrArCrCrGrGrArUrArArGrGrGrArCrUrGrArUdAdT	99.1
